- System: HepG2
- METHOD_SUMMARY: cytotoxicity call (relative viability < 0.9)
- TEST_CONDITIONS: 10 µM
Hit rate of the full screen: of about 39,000 compounds, about 3,300 (8.5%) were called active. For the sample, actives were picked, then their nearest neighbours and some compounds at random.
Allowed answers: Yes = active, No = inactive

Please review the following examples before continuing.
C[C@@H]1CN([C@@H](C)CO)C(=O)c2cc(NC(=O)NC3CCCCC3)ccc2O[C@@H](C)CCCCO[C@H]1CN(C)Cc1ccccc1	No
C[C@@H]1CN([C@H](C)CO)C(=O)c2cccc(NC(=O)Nc3cccc4ccccc34)c2O[C@@H]1CN(C)S(=O)(=O)c1ccc(F)cc1	No
CS(=O)(=O)N1CCOC[C@]2(CN(C(=O)c3ccc[nH]3)CCO2)C1	No
C[C@@H]1CN([C@H](C)CO)C(=O)c2cc(NC(=O)NC3CCCCC3)ccc2O[C@@H](C)CCCCO[C@@H]1CN(C)Cc1ccccc1	No
O=C(C[C@@H]1CC[C@@H]2[C@H](COC[C@@H](O)CN2C(=O)c2ccc3c(c2)OCO3)O1)NCCN1CCCCC1	No
C[C@@H]1CCCCO[C@H](CN(C)Cc2ccc(Cl)c(Cl)c2)[C@@H](C)CN([C@@H](C)CO)C(=O)c2cc(NC(=O)Nc3ccc(F)cc3)ccc2O1	Yes

Ask: Kindly provide the recorded test outcome for the following molecule: C[C@@H]1CCCCO[C@H](CN(C)S(=O)(=O)c2ccc(Cl)cc2)[C@@H](C)CN([C@@H](C)CO)C(=O)c2cc(NC(=O)C3CCCCC3)ccc2O1
Reply: No

Ask: Kindly provide the recorded test outcome for the following molecule: CCCN(CCC)S(=O)(=O)c1ccc(C(=O)N(c2cccc(SC)c2)[C@H]2OC(=O)c3ccccc32)cc1
Reply: No

Ask: Kindly provide the recorded test outcome for the following molecule: CC(C)NC(=O)Nc1ccc2c(c1)C(=O)N([C@H](C)CO)C[C@@H](C)[C@H](CN(C)Cc1ccc(Cl)c(Cl)c1)OCCCC[C@@H](C)O2
Reply: Yes

Ask: Kindly provide the recorded test outcome for the following molecule: C[C@H]1CCCCO[C@@H](CN(C)Cc2ccncc2)[C@@H](C)CN([C@@H](C)CO)C(=O)c2cc(NC(=O)NC3CCCCC3)ccc2O1
Reply: No

Ask: Kindly provide the recorded test outcome for the following molecule: CCOC(=O)CN1C(=O)c2ccccc2C1=O
Reply: No

Ask: Kindly provide the recorded test outcome for the following molecule: C[C@@H]1CN([C@@H](C)CO)C(=O)c2cccc(NC(=O)Nc3cccc4ccccc34)c2O[C@@H]1CN(C)S(=O)(=O)c1ccc(Cl)cc1
Reply: No

====

- Test system: HepG2
- METHOD_SUMMARY: cytotoxicity call (relative viability < 0.9)
- TEST_CONDITIONS: 10 µM
About 3,300 (8.5%) of roughly 39,000 compounds were called active. The sample holds actives, similar compounds and a random draw of the others, so the mix is not that of the screen.
Allowed answers: Yes = active, No = inactive

Please review the following examples before continuing.
C[C@@H]1CN([C@@H](C)CO)C(=O)c2cc(NS(=O)(=O)c3ccc(Cl)cc3)ccc2O[C@@H](C)CCCCO[C@H]1CN(C)CC1CCCCC1	No
Cc1cc(C)c2ccc(Cl)nc2n1	No

Ask: Kindly provide the recorded test outcome for the following molecule: C[C@@H]1CN([C@H](C)CO)C(=O)c2cc(C3=CCCCC3)cnc2O[C@@H]1CN(C)C(=O)CN1CCOCC1
Reply: No

Ask: Kindly provide the recorded test outcome for the following molecule: C[C@@H]1CN([C@@H](C)CO)C(=O)c2cc(NC(=O)C3CCCCC3)ccc2O[C@H]1CN(C)C(=O)Nc1cccc2ccccc12
Reply: No

Ask: Kindly provide the recorded test outcome for the following molecule: C[C@@H]1CN([C@@H](C)CO)S(=O)(=O)c2ccc(C#Cc3ccncc3)cc2O[C@@H]1CN(C)C(=O)c1ccncc1
Reply: No

Ask: Kindly provide the recorded test outcome for the following molecule: C[C@H]1CN([C@@H](C)CO)S(=O)(=O)c2ccc(C#Cc3ccncc3)cc2O[C@@H]1CN(C)C(=O)c1ccncc1
Reply: Yes

Ask: Kindly provide the recorded test outcome for the following molecule: C[C@@H]1CCCCO[C@@H](CN(C)CC2CCCCC2)[C@@H](C)CN([C@@H](C)CO)C(=O)c2cc(NS(=O)(=O)c3ccc(Cl)cc3)ccc2O1
Reply: Yes
